- System: Bovine cardiac myofibrils
- Assay info: In vitro model of dose-dependent myofibril ATPase modulation (AC1.4, pyruvate kinase/lactate dehydrogenase-coupled ATPase assay at pCa25)
- Format: biochemical
- Experimental parameters: concentration at which ATPase activity was 1.4-fold higher than the bottom of the dose curve, mean of a minimum of two independent tests
Property name: AC1.4 (µM)
A number alone suffices; assume µM.

Identify measured AC1.4 corresponding to CS(=O)(=O)c1cc(C(=O)N2CCCC[C@@H]2C(=O)N[C@@H](c2cc(F)c(Cl)cc2F)C2CC2)ccn1 0.8652

Identify measured AC1.4 corresponding to Cc1noc(C2CN(S(=O)(=O)N3CCC[C@H](C(=O)N4CCC[C@@H]4C(=O)NCc4ccc(C(F)(F)F)cc4)C3)C2)n1 5.317

Identify measured AC1.4 corresponding to C[C@@H](NC(=O)[C@H]1[C@@H]2C[C@@H]2CN1C(=O)c1cccc(S(=O)(=O)N(C)C)c1)c1ccc(C(F)(F)F)cc1 3.205

Identify measured AC1.4 corresponding to CCCCCC1CN(S(=O)(=O)N2CCC[C@H](C(=O)N3CCC[C@@H]3C(=O)NCc3ccc(C(F)(F)F)cc3)C2)C1 7.0265

Identify measured AC1.4 corresponding to N#CC1CN(S(=O)(=O)N2CCC[C@H](C(=O)N3CCC[C@@H]3C(=O)NCc3c(F)cc(F)c(F)c3F)C2)C1 1.5735

Identify measured AC1.4 corresponding to CC(C)(C(N)=O)c1cccc(C(=O)N2[C@@H](C(=O)N[C@@H](c3ccc(C(F)(F)F)cc3F)C3COC3)C[C@H]3C[C@H]32)c1 2.3075

----------
Please respond with reported log10 of AC1.4 for every item in the list.
- Tested on: Bovine cardiac myofibrils
- Assay info: In vitro model of dose-dependent myofibril ATPase modulation (AC1.4, pyruvate kinase/lactate dehydrogenase-coupled ATPase assay at pCa25)
- Format: biochemical
- Experimental parameters: concentration at which ATPase activity was 1.4-fold higher than the bottom of the dose curve, mean of a minimum of two independent tests
Values below are the log10 of the recorded AC1.4, with µM as the unit.

Identify measured log10 of AC1.4 corresponding to CS(=O)(=O)c1cccc(C(=O)N2C[C@@H](F)C[C@@H]2C(=O)N[C@@H](c2ccc(C(F)(F)F)cc2F)C2COC2)c1 0.39

Identify measured log10 of AC1.4 corresponding to Cc1ccc([C@H](NC(=O)[C@H]2C[C@H](F)CN2C(=O)c2cccc(S(C)(=O)=O)c2)C2CC2)cc1F 0.96

Identify measured log10 of AC1.4 corresponding to CCNc1ccc(C)cc1C(=O)N1C[C@H](O)C[C@@H]1C(=O)N[C@@H](c1cc(F)c(Cl)cc1F)C1COC1 -1.44

Identify measured log10 of AC1.4 corresponding to N#Cc1ccc(CNC(=O)[C@H]2CCCN2C(=O)c2cccc(S(=O)(=O)N3CC(C#N)C3)c2)cc1 -0.22

Identify measured log10 of AC1.4 corresponding to O=C(N[C@@H](c1cc(F)c(Cl)cc1F)C1COC1)[C@H]1C[C@H]2C[C@H]2N1C(=O)c1cncc(C(F)(F)F)c1 -0.14

Identify measured log10 of AC1.4 corresponding to CC[C@@H](NC(=O)[C@H]1CCCN1C(=O)c1cccc(S(C)(=O)=O)c1)c1ccc(C(F)(F)F)cc1F 0.59
